# assayNotes: gradient 5% acetonitrile 3 min, to 50% in 2 min, to 85% in 15 min, held 3 min, 100 µL/min
# experimentalContext: column: Zorbax Extend-C18 2.1 x 50 mm; eluents: water / acetonitrile, 0.1% formic acid
readoutType: RP-LC retention time (s)

Check out these entries, answers already filled in.
{"columns": ["compound", "readoutType", "endpointValue"],
 "data": [
  ["O=C(C1=CN(c2ccc(Cl)cc2)c2ccccc2S1(=O)=O)N1CCOCC1", "RP-LC retention time", 791],
  ["Cc1ccccc1Nc1c(-c2ccccc2)nc2cnccn12", "RP-LC retention time", 906],
  ["COc1ccc(N2CCN(c3cc(SCC(=O)Nc4cc(C)ccc4C)ncn3)CC2)cc1", "RP-LC retention time", 1020]
]}

P = CCN(CC)C(=O)c1ccc2c(c1)nnn2CCNC(=O)Nc1ccc(Br)c(C)c1
Q = c1ccc2c(c1)[nH]c1c3ccccc3sc21
Kindly compare P with Q and tell me which has the lower RP-LC retention time figure. State your choice using its label. P

a = CCn1cc(C(=O)Nc2cc(C)cc(C)c2)c(S(=O)(=O)N2CCSCC2)n1
b = O=C(NCc1ccc(F)cc1Cl)c1cn2c(n1)CCCC2
Which value of RP-LC retention time is greater, the one for a or the one for b ? State your choice using its label. a
(a: 944 s, b: 607 s)

----------
# assayNotes: gradient 5% acetonitrile 3 min, to 50% in 2 min, to 85% in 15 min, held 3 min, 100 µL/min
# experimentalContext: column: Zorbax Extend-C18 2.1 x 50 mm; eluents: water / acetonitrile, 0.1% formic acid
readoutType: RP-LC retention time (s)

Check out these entries, answers already filled in.
{"columns": ["molecule", "readoutType", "endpointValue"],
 "data": [
  ["COCCOCC1CCN(C(=O)CNC(=O)c2ccccc2)CC1", "RP-LC retention time", 620],
  ["CC1(C(=O)NC2CCCCCCC2)CN(S(C)(=O)=O)CC(=O)N1c1ccc(F)cc1F (stereo not given)", "RP-LC retention time", 952],
  ["O=C(CCC1CCCC1)Nc1nc(-c2ccc(F)cc2)cs1", "RP-LC retention time", 1210],
  ["COc1cccc(CNC(=O)Cn2nc3c4cccc(C)c4ncn3c2=O)c1OC", "RP-LC retention time", 630],
  ["CNC(=O)[C@@H]1CN(C(=O)c2ccn(C)n2)C[C@H]1COC", "RP-LC retention time", 535],
  ["Cc1cc(S(=O)(=O)N(C)CC2CCOC2)ccc1F (stereo not given)", "RP-LC retention time", 836],
  ["Cc1ccc(F)cc1-n1cc(C(=O)O)c2ccccc2c1=O", "RP-LC retention time", 791],
  ["Cc1c(-c2ccnc(N3CCN(C)CC3)n2)cnc2nc(-c3ccncc3)nn12", "RP-LC retention time", 552],
  ["CC1CCN(C(=O)c2nc3ccccn3c2-c2ccsc2)CC1", "RP-LC retention time", 711],
  ["COCCNC(=O)c1cn2ccc(C)cc2n1", "RP-LC retention time", 616]
]}

1 = Cc1ccc(NC(=O)C2CC(=O)N(c3ccc4c(c3)CCN4C(=O)C3CC3)C2)c(C)c1 (stereo not given)
2 = O=C(O)c1ccc(Cn2cnc3ccccc32)o1
3 = CCc1ccc(-c2noc(Cn3c(=O)n(-c4ccc(Cl)cc4)c(=O)c4sccc43)n2)cc1
Ordering: ascending RP-LC retention time. # respond with the labels, arranged in the requested order 2, 1, 3
(2: 512 s, 1: 805 s, 3: 1160 s)

----------
# assayNotes: gradient 5% acetonitrile 3 min, to 50% in 2 min, to 85% in 15 min, held 3 min, 100 µL/min
# experimentalContext: column: Zorbax Extend-C18 2.1 x 50 mm; eluents: water / acetonitrile, 0.1% formic acid
readoutType: RP-LC retention time (s)

{"columns": ["compound", "unitText", "RP-LC retention time"],
 "data": [
  ["CC(C)CCNC(=O)C1(C)CN(S(=O)(=O)c2ccccc2)CC(=O)N1CCCN1CCCCC1 (stereo not given)", "s", 674]
]}

a = CCn1cnc2cc(-c3noc(C4CC(=O)N(c5cccc(Cl)c5)C4)n3)ccc21 (stereo not given)
b = CCOc1cccc(-c2noc(-c3nnn(Cc4nc(-c5ccccc5OC)oc4C)c3C)n2)c1
Which value of RP-LC retention time is greater, the one for a or the one for b ? State your choice using its label. b

P = COCC(=O)N1CCc2c([nH]c3ccccc23)C1c1ccccc1 (stereo not given)
Q = NS(=O)(=O)c1ccc(CCNCc2ccc(-c3ccccc3F)o2)cc1
Kindly compare P with Q and tell me which has the lower RP-LC retention time figure. State your choice using its label. Q

1 = CCOC(=O)Cc1ccc(NC(=O)Nc2cccn3c(C)nnc23)cc1
2 = CCOC(=O)C(CC)n1nc2nc(Nc3ccc(C)cc3)cc(C)n2c1=O (stereo not given)
Which value of RP-LC retention time is greater, the one for 1 or the one for 2 ? State your choice using its label. 2
(2: 1230 s, 1: 723 s)

----------
# assayNotes: gradient 5% acetonitrile 3 min, to 50% in 2 min, to 85% in 15 min, held 3 min, 100 µL/min
# experimentalContext: column: Zorbax Extend-C18 2.1 x 50 mm; eluents: water / acetonitrile, 0.1% formic acid
readoutType: RP-LC retention time (s)

Check out these entries, answers already filled in.
{"columns": ["compound", "readoutType", "unitText", "endpointValue"],
 "data": [
  ["Cc1c(F)cccc1NC(=O)N(C)CC1CCOC1 (stereo not given)", "RP-LC retention time", "s", 745],
  ["CCCNC(=O)N1CCCN(C2=NS(=O)(=O)C(c3ccc(CC)cc3)=C2C)CC1", "RP-LC retention time", "s", 809]
]}

1 = Cn1nc2n(c1=O)CCC(NS(=O)(=O)c1cccnc1)CC2 (stereo not given)
2 = Cn1c(=O)c2c(nc3n(-c4ccc(F)cc4)c(-c4ccc(Cl)cc4)cn23)n(C)c1=O
Kindly compare 1 with 2 and tell me which has the lower RP-LC retention time figure. State your choice using its label. 1

----------
# assayNotes: gradient 5% acetonitrile 3 min, to 50% in 2 min, to 85% in 15 min, held 3 min, 100 µL/min
# experimentalContext: column: Zorbax Extend-C18 2.1 x 50 mm; eluents: water / acetonitrile, 0.1% formic acid
readoutType: RP-LC retention time (s)

Check out these entries, answers already filled in.
{"columns": ["molecule", "unitText", "RP-LC retention time"],
 "data": [
  ["O=C(NCCc1cccnc1)c1cn(-c2cc(N3CCOCC3)ncn2)cn1", "s", 565],
  ["CCc1nc2cc(N3CCC(C(=O)N(C)Cc4ccco4)CC3)cnc2nc1CC", "s", 755],
  ["CCCCOc1ccc(-c2cc3c4nnc(CCC(=O)NCc5ccc(F)cc5)n4ccn3n2)cc1", "s", 952],
  ["O=C(CN1C(=O)NC(c2ccc(Cl)cc2)C2=C1COC2=O)Nc1ccc(Br)cc1F (stereo not drawn)", "s", 877]
]}

1 = CC(C)N1CCN(C(=O)c2csc(-c3ccc(N4CCCC4)nc3)n2)CC1
2 = CCOc1ccc(-c2cc3c(=O)n(Cc4nc(-c5ccc6c(c5)OCO6)no4)ncn3n2)cc1
Kindly compare 1 with 2 and tell me which has the lower RP-LC retention time figure. State your choice using its label. 1

----------
# assayNotes: gradient 5% acetonitrile 3 min, to 50% in 2 min, to 85% in 15 min, held 3 min, 100 µL/min
# experimentalContext: column: Zorbax Extend-C18 2.1 x 50 mm; eluents: water / acetonitrile, 0.1% formic acid
readoutType: RP-LC retention time (s)

Check out these entries, answers already filled in.
{"columns": ["compound", "unitText", "endpointValue"],
 "data": [
  ["C=CCN1C(=O)COc2ccc(-c3nc(NC(=O)c4cccs4)sc3C)cc21", "s", 998],
  ["Cc1nc(CC(=O)NCCc2c[nH]c3ccc(Cl)cc23)cs1", "s", 754],
  ["Cc1ccc(CNC(=O)C2(C)CN(S(C)(=O)=O)CC(=O)N2CCc2ccc(Cl)cc2)cc1 (stereo not drawn)", "s", 961],
  ["COc1ccccc1NC(=O)c1ccc(Br)cc1F", "s", 1070],
  ["O=C(Nc1ccc(F)cc1F)N1CCCC(Cn2c(C3CC3)nc3cccnc32)C1 (stereo not drawn)", "s", 668]
]}

A = COc1cc(-c2nc(C3CC(=O)N(c4ccc(Cl)cc4)C3)no2)cc(OC)c1OC (stereo not drawn)
B = O=C(Nc1nccs1)C1CCN(C(=O)c2ccccn2)CC1
Kindly compare A with B and tell me which has the lower RP-LC retention time figure. State your choice using its label. B

P = COc1ccc(S(=O)(=O)N2CCCC(C(=O)N3CCN(Cc4ccccc4)CC3)C2)cc1Cl (stereo not drawn)
Q = O=C(c1cccc(Cl)c1)N1CCc2nc(-c3ccc(Cl)cc3)ncc2C1
Which value of RP-LC retention time is greater, the one for P or the one for Q ? State your choice using its label. Q

A = Cc1ccc(Cl)cc1NC(=O)C(=O)c1cccn1C
B = COc1ccc(Cl)cc1C(=O)N1CCC(c2nc3ccncc3n2C(C)C)C1 (stereo not drawn)
Kindly compare A with B and tell me which has the lower RP-LC retention time figure. State your choice using its label. B

A = CN1C(=O)c2ccccc2Oc2ccc(C(=O)NC3CCCCC3)cc21
B = CCOC(=O)c1c(C)[nH]c(C)c1S(=O)(=O)N1CCC(C(=O)Nc2ccc(C)c(N(C)C)c2)CC1
Which value of RP-LC retention time is greater, the one for A or the one for B ? State your choice using its label. A
